- System: H 3211 NSLC cells
- assay overview: IC50 of continuous and pulsed exposure to SDC-TRAPs
- Assay type: cell-based
- assay conditions: read-out: IC50, 72 h-continuous; H 3211 NSLC cells, 7.5 × 10^3 cells/well; 1st of 3 columns
value kind: IC50 (µM)
Write it as a number; the unit µM goes unstated.

Prompt line: For the compound CNCCn1ccc2cc(-n3c(O)nnc3-c3cc(C(C)C)c(O)cc3O)ccc21 , report IC50.
Response line: 0.022

###

- assay overview: Artificial membrane permeability assay (PAMPA)
- Assay type: in vitro ADME
- assay conditions: 5 h incubation, first table
value kind: Papp at 5 h (×10⁻⁶ cm/s)
Write it as a number; the unit ×10⁻⁶ cm/s goes unstated.

Prompt line: For the molecule CC(C)c1cc(-c2nnc(O)n2-c2ccc3c(ccn3CCNC(=O)CCCCCNC(=O)CCCC[C@H]3SCC4NC(=O)NC43)c2)c(O)cc1O (stereo in doubt) [SDC-TRAP-0234] , report Papp at 5 h.
Response line: 0.0123

Sourced from patent US10675360B2
